Biological target: UniProt P04585
Test: biochemical
Measurement name: pKi
pKi here is simply -log10 of the concentration when that concentration is written in mol/L.

Which pKi value is on record for CC(C)CN([C@H](CO)CCCNC(=O)[C@@H](N)Cc1ccccc1-c1ccccc1)S(=O)(=O)c1ccc(N)cc1 ?
8.15

Which pKi value is on record for COC(=O)N[C@@H](Cc1ccc2ccccc2c1)C(=O)NCCC[C@@H](CO)N(CC(C)C)S(=O)(=O)c1ccc(N)cc1 ?
8.14

Which pKi value is on record for CC(C)CN[C@@H](Cc1cccc2ccccc12)C(=O)NCCC[C@@H](CO)N(CC(C)C)S(=O)(=O)c1ccc(N)cc1 ?
8.43

Which pKi value is on record for CC(C)CN([C@H](CO)CCCNC(=O)[C@H](Cc1cccc2ccccc12)NCC(=O)O)S(=O)(=O)c1ccc(N)cc1 ?
8.60

Which pKi value is on record for CC(C)CN([C@H](CO)CCCCNC(=O)[C@H](Cc1ccc2ccccc2c1)NC(=O)c1cnccn1)S(=O)(=O)c1ccc(N)cc1 ?
8.68

Which pKi value is on record for CC(C)CN([C@H](CO)CCCNC(=O)[C@@H](N)C(c1ccccc1)c1ccccc1)S(=O)(=O)c1ccc(N)cc1 ?
8.12

Which pKi value is on record for CC(C)CN(C(CO)CCCCNC(=O)C(Cc1ccc2ccccc2c1)NC(=O)C1CCOC1)S(=O)(=O)c1ccc(N)cc1 (centres unmarked) ?
8.57

Which pKi value is on record for CC(C)CN([C@H](CO)CCCCNC(=O)[C@@H](NC(=O)c1cccnc1)C(c1ccccc1)c1ccccc1)S(=O)(=O)c1ccc(N)cc1 ?
9.17

Which pKi value is on record for COC(=O)N[C@@H](Cc1cccc2ccccc12)C(=O)NCCC[C@@H](CO)N(CC(C)C)S(=O)(=O)c1ccc(N)cc1 ?
8.55

Which pKi value is on record for CC(C)CN([C@H](CO)CCCCNC(=O)[C@H](Cc1ccc2ccccc2c1)NCC(C)(C)C)S(=O)(=O)c1ccc(N)cc1 ?
7.66

Which pKi value is on record for COC(=O)N[C@H](C(=O)NCCC[C@@H](CO)N(CC(C)C)S(=O)(=O)c1ccc(N)cc1)C(c1ccccc1)c1ccccc1 ?
8.30

Which pKi value is on record for CC(C)CN([C@H](CO)CCCCNC(=O)[C@@H](NC(=O)c1ccncc1)C(c1ccccc1)c1ccccc1)S(=O)(=O)c1ccc(N)cc1 ?
9.19
